- target: cGMP-dependent 3',5'-cyclic phosphodiesterase (Homo sapiens, UniProt O00408)
- Sequence (O00408 whole entry): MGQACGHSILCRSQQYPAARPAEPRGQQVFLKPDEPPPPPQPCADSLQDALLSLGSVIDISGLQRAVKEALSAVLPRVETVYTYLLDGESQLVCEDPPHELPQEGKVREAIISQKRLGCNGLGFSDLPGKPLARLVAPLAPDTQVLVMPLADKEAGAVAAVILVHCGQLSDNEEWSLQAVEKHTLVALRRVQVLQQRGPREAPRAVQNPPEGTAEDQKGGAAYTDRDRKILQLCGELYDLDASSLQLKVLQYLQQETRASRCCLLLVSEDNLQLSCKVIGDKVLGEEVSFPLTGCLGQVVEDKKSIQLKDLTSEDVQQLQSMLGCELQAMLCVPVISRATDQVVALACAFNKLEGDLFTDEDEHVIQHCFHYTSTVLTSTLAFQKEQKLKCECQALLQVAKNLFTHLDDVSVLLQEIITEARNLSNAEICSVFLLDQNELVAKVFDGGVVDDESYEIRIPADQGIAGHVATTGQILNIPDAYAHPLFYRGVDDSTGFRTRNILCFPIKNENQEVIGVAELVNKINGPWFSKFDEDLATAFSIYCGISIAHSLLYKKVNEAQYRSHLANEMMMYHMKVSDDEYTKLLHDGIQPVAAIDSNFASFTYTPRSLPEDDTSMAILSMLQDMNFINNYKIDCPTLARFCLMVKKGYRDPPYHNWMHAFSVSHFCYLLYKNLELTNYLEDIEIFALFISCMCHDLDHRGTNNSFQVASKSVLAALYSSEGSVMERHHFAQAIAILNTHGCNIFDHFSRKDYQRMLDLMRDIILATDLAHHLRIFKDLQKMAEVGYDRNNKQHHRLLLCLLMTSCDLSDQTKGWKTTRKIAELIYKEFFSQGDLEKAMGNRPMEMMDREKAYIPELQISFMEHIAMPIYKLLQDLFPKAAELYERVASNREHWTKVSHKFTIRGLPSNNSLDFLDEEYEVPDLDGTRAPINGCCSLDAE
- protocol description: Inhibition of cGMP PDE II enzyme
- Set-up: species or system Cavia porcellus
readout label: IC50
Please give the number followed by its unit.

Dear colleague, please send me the reported IC50 for CC1=C(c2ccc(-n3ccnc3)cc2)CC(C#N)C(=O)N1 (stereo unspecified) when you can.
120 µM

---

- Test system: Canis familiaris
- protocol description: 50% increase in myocardial contractility (dP/dt max) in anesthetized dogs on intravenous dose
- Type: functional
- particulars: Canis lupus familiaris, Myocardium
Quick list: log10 of ED50 per entry.
Parameter value (number): base-10 log of ED50 in mg/kg.

Answered cases to consult:
compound	readout label	numeric result
CSc1ccc(C(=O)c2[nH]c(=O)[nH]c2C)cc1	log10 of ED50	-0.55
Cc1[nH]c(=O)c(C#N)cc1-c1ccncc1	log10 of ED50	-1.40
CCc1[nH]c(=O)[nH]c1C(=O)c1ccncc1	log10 of ED50	-1.00
O=C1CC2Cc3cc(-n4ccnc4)ccc3C2=NN1 (configuration not stated)	log10 of ED50	-1.64
Nc1cc(-c2ccncc2)c[nH]c1=O	log10 of ED50	-0.41

Give me measured log10 of ED50, please, for this compound: CC1=C(c2ccc(-n3ccnc3)cc2)CC(C#N)C(=O)N1 (configuration not stated)
-2.00

Give the measured log10 of ED50 for O=C1CC2Cc3cc(-n4cnc5c4CCCC5)ccc3C2=NN1 (configuration not stated)
-1.30

---

- target: cGMP-dependent 3',5'-cyclic phosphodiesterase (Homo sapiens, UniProt O00408)
- protocol description: Inhibition of cAMP PDE II enzyme
- Parameters: species or system Cavia porcellus
readout label: pIC50
// returns pIC50 (minus log10 of molar concentration), number only

Annotate the molecule CC1=C(c2ccc(-n3ccnc3)cc2)CC(C#N)C(=O)N1 (stereo unspecified) with its measured pIC50.
4.37
